# target.or.test.system: mushroom tyrosinase (EC 1.14.18.1) (Agaricus bisporus)
# Sequence (C7FF04 1-392 limits assumed): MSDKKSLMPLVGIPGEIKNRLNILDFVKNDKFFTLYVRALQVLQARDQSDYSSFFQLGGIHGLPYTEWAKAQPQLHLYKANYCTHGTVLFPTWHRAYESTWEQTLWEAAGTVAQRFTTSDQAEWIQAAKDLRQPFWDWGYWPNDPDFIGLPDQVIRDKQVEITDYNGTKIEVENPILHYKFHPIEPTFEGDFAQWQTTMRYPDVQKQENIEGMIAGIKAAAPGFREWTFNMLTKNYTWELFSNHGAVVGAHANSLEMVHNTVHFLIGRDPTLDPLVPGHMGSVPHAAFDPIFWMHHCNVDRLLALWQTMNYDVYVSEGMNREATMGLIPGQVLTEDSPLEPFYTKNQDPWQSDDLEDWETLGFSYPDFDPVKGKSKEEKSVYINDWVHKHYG
pIC50: −log10 of the molar value.
Assign true to entries whose pIC50 meets or exceeds 5; assign false to the rest.

{"compound.smiles": "Oc1cc(O)cc(/C=C/c2ccc(O)cc2O)c1", "class.name": "true"}
{"compound.smiles": "Oc1cc(O)cc(-c2cc3ccc(O)cc3o2)c1", "class.name": "false"}
{"compound.smiles": "CC(C)=CCc1c(O)cc(-c2cc3ccc(O)cc3o2)cc1O", "class.name": "false"}
{"compound.smiles": "CC(C)=CCc1c(O)ccc(C(=O)[C@H]2[C@@H](c3c(O)cc(-c4cc5ccc(O)cc5o4)cc3O)C=C(C)C[C@@H]2c2ccc(O)cc2O)c1O", "class.name": "true"}
